# Target Of Assay: CHK1 (kinase domain) (Homo sapiens)
# Sequence (O14757 9-265 limits assumed): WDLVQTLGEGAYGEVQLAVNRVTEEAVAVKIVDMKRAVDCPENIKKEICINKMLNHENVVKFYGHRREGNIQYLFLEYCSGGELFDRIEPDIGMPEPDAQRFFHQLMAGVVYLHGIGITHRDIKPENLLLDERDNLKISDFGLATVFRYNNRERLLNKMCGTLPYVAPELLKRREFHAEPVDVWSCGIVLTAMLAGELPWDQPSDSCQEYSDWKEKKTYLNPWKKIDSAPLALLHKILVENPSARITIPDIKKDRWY
pKi: −log10 of the molar value. Structures can show the parent of a compound that is named as a salt.
Measurement Name: pKi

P = Cc1ccc2ncc(-c3cncc(N[C@@H]4CCNC4)n3)n2c1
Q = Nc1ccc2ncc(-c3cncc(N[C@@H]4CCCNC4)n3)n2c1
R = CC(CO)(CO)COc1ccc2c(c1)ncn2-c1cncc(N[C@@H]2CCCNC2)n1
S = c1cn2ncc(-c3cncc(N[C@@H]4CCCNC4)n3)c2cn1 [Example 251, acetate salt]
T = Fc1ccc2ncc(-c3cncc(N[C@H]4CNC[C@H]4F)n3)n2c1
input: Arrange these 5 compounds in increasing order of pKi. Would you mind listing the labels in the order asked for?
output: T, P, S, Q, R

I = Cc1cn2c(-c3cncc(N[C@@H]4CCCN[C@@H]4C)n3)cnc2s1 [Example 96]
II = CC(C)c1cn2c(-c3cncc(N[C@@H]4CC[C@H](C)NC4)n3)cnc2s1
input: Field: entry with larger pKi (options I / II ). Pick one and reply with its label.
output: I
(I: 8.57, II: 7.91)

I = C[C@@H]1CNC[C@@H]1Nc1cncc(-c2cnn3cc(F)ccc23)n1
II = COc1cc2c(cn1)ncn2-c1cncc(N[C@@H]2CCCNC2)n1
III = CC1(Nc2cncc(-c3cnc4n3CCCC4)n2)CCNC1 (stereo not shown)
input: Hi! Can you put these in order of pKi, lowest number first? Would you mind listing the labels in the order asked for?
output: III, I, II
(III: 6.00, I: 7.74, II: 8.19)

a = COc1ccc2ncn(-c3cncc(N[C@@H]4CCNC4)n3)c2c1
b = F[C@H]1CNC[C@@H]1Nc1cncc(-c2cnc3cc(Cl)ccn23)n1
input: Field: entry with larger pKi (options a / b ). Pick one and reply with its label.
output: a

----------
# Target Of Assay: CHK1 (kinase domain) (Homo sapiens, UniProt O14757)
# Sequence (O14757 9-265 limits assumed): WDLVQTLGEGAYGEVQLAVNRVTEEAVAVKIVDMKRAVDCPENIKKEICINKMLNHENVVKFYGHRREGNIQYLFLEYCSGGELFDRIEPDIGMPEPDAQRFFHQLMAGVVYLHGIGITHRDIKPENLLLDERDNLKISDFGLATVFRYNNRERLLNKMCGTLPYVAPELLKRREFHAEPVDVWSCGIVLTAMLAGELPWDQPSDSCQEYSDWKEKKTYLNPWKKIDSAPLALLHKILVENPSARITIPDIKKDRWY
pKi: −log10 of the molar value.
Measurement Name: pKi

C[C@@H]1CNC[C@@H]1Nc1cncc(-n2cnc3cc(OCC4(C)COC4)ccc32)n1: 8.60
c1ccn2c(-c3cncc(NC4CC5CNC4C5)n3)cnc2c1 (stereo not shown): 7.68

1 = N#Cc1ccn2c(-c3cncc(N[C@@H]4CCCNC4)n3)cnc2c1
2 = C[C@@H]1NCCC[C@H]1Nc1cncc(-c2cnc3cc(Cl)ccn23)n1
input: Min pKi? 1 | 2 Pick one and reply with its label.
output: 2
(2: 7.44, 1: 8.20)

----------
# Target Of Assay: CHK1 (kinase domain) (Homo sapiens)
# Construct: a solution containing 1 nM of CHK1 (kinase domain)
# Experiment: CHK1 Ki determination, spectrophotometric coupled (pyruvate kinase/lactate dehydrogenase) assay
# Format: biochemical
# Reported Conditions: CHK-1 kinase domain; inhibitor concentration not given
Measurement Name: percent inhibition (where no Ki data is available) (%)

c1ccn2c(-c3cncc(N[C@H]4CCCNC4)n3)cnc2c1: 0
Cc1cccc2ncc(-c3cncc(N[C@@H]4CCNC4)n3)n12: 0
Cc1cn2c(-c3cncc(N[C@H]4CCCN[C@@H]4C)n3)cnc2s1 [Example 134]: 0
Cc1ncc(-c2cncc(N[C@@H]3CC[C@@H](C)NC3)n2)n1Cc1ccccc1: 0
Cc1ncc(-c2cncc(N[C@@H]3CCNC3)n2)n1C: 0

1 = C[C@@H]1NCCC[C@H]1Nc1cncc(-c2cnc3ccccn23)n1
2 = Cc1cccn2c(-c3cncc(N[C@@H]4CCCNC4)n3)cnc12
input: Min percent inhibition (where no Ki data is available)? 1 | 2 Pick one and reply with its label.
output: 1
(1: 0%, 2: 21%)

----------
# Target Of Assay: CHK1 (kinase domain) (Homo sapiens)
# Construct: a solution containing 1 nM of CHK1 (kinase domain)
# Sequence (O14757 9-265 limits assumed): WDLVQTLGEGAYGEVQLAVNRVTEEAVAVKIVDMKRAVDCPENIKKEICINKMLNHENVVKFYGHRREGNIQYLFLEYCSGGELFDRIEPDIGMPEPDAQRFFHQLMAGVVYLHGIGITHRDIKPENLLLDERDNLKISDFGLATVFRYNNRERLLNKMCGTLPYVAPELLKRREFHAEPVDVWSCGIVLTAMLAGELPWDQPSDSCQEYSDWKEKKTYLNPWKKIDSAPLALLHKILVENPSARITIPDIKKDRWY
# Experiment: CHK1 Ki determination, spectrophotometric coupled (pyruvate kinase/lactate dehydrogenase) assay
# Type: biochemical
# Reported Conditions: CHK-1 kinase domain; inhibitor concentration not given
Measurement Name: percent inhibition (where no Ki data is available) (%)

Cc1ncc(-c2cncc(N[C@@H]3CC[C@@H](C)NC3)n2)n1C: 0
Cc1ncc(-c2cncc(N[C@H]3CNC[C@@H]3F)n2)n1C: 0
Cc1ncc(-c2cncc(N[C@@H]3CC[C@H](C)NC3)n2)n1C: 0

Origin of measurements: patent US8518952B2
